Where do the numbers come from? From ChEMBL document CHEMBL1201862.

# Tested on: MOLT-4
# ASSAY NAME: NCI tumour cell line growth inhibition, 48 h
Calls of active or inactive are those of the source. Cut-off read from the data, not from the text of the source: active = GI50 up to about 1.1 µM and inactive = higher.
ASSAY ENDPOINT: GI50

Consider the following illustrative entries.
[[record]]
molecule = "CCCCc1ccc(Nc2nc3c(ncn3C3CC(O)C(CN=[N+]=[N-])O3)c(=O)[nH]2)cc1 (centres undefined)"
target_or_test_system = "MOLT-4"
assay_endpoint = "GI50"
result = "> 100 µM (inactive)"

[[record]]
molecule = "Oc1c2c(nc3cc4c(cc13)OCO4)-c1ccccc1CC2"
target_or_test_system = "MOLT-4"
assay_endpoint = "GI50"
result = "> 100 µM (inactive)"

[[record]]
molecule = "CC(=O)Nc1ccc2nncnc2c1"
target_or_test_system = "MOLT-4"
assay_endpoint = "GI50"
result = "> 100 µM (inactive)"

[[record]]
molecule = "O=C(CCl)N1CCN(c2ccccn2)CC1"
target_or_test_system = "MOLT-4"
assay_endpoint = "GI50"
result = "31.7 µM (inactive)"

[[record]]
molecule = "O=S(=O)(O)c1cc(O)c2c(/N=C\\c3ccccc3O)cc(S(=O)(=O)O)cc2c1"
target_or_test_system = "MOLT-4"
assay_endpoint = "GI50"
result = "9.57 µM (inactive)"

[[record]]
molecule = "O=C1/C(=C/c2ccc(Cl)cc2)N=C(c2ccccc2)N1c1nc2c(Cl)cc(Cl)cc2s1"
target_or_test_system = "MOLT-4"
assay_endpoint = "GI50"
result = "2.28 µM (inactive)"

[[record]]
molecule = "CN(C)c1nnnn1-c1c(N)n(C)c(=O)n(C)c1=O"
target_or_test_system = "MOLT-4"
assay_endpoint = "GI50"
result = "> 100 µM (inactive)"

[[record]]
molecule = "CC(C)Cn1cnc2c(Cl)nc3ccccc3c21"
target_or_test_system = "MOLT-4"
assay_endpoint = "GI50"
result = "34.3 µM (inactive)"


Consider now this further molecule.
Qu. Which measured GI50 value corresponds to O=[As](O)(O)c1ccc2nc3cc([As](=O)(O)O)ccc3nc2c1 ?
Ans. > 100 µM (inactive)

* * *

# Tested on: BT-549
# ASSAY NAME: NCI tumour cell line growth inhibition, 48 h
The source made the active and inactive calls. Cut-off read from the data, not from the text of the source: active = GI50 up to about 1.1 µM and inactive = higher.
// one of T = active, F = inactive, no free text

[[record]]
compound = "C=CC[C@@]1(C)CCCCCCCCC[C@@](C)(CC=C)C1=O"
qualitative_label = "F"


Qu. Call for entry COc1ccc(C[C@H]2NC[C@H](OC(C)=O)[C@H]2OC(C)=O)cc1 :
Ans. T

Qu. Call for entry COc1ccc(-n2sc3ncc([N+](=O)[O-])cc3c2=O)cc1 :
Ans. F

Qu. Call for entry OCCSCc1cc2c(O)c(c1)Cc1cc(CSCCO)cc(c1O)Cc1cc(CSCCO)cc(c1O)Cc1cc(CSCCO)cc(c1O)C2 :
Ans. F

Qu. Call for entry Cc1cn2c(/C=C3/C(=O)Nc4ccccc43)c(-c3ccccc3)nc2s1 :
Ans. F

Qu. Call for entry O=C1OC(=O)C(=C\c2ccc3c(c2)OCO3)/C1=C/c1ccc2c(c1)OCO2 :
Ans. F

* * *

# Tested on: A549
# ASSAY NAME: NCI tumour cell line growth inhibition, 48 h
Calls of active or inactive are those of the source. Cut-off read from the data, not from the text of the source: active = GI50 up to about 1.1 µM and inactive = higher.
ASSAY ENDPOINT: GI50

Consider the following illustrative entries.
[[record]]
molecule = "COC(=O)C(Cc1ccc2c(c1)CCCC2)Cc1cc2c(cc1C(O)OC)CCC2 (stereo not drawn)"
result = "41.5 µM (inactive)"

[[record]]
molecule = "O=C(NNC(=O)/C(=C/c1cccc([N+](=O)[O-])c1)NC(=O)c1ccccc1)Nc1ccc(Cl)cc1"
result = "14.3 µM (inactive)"


Qu. Which measured GI50 value corresponds to Cn1c(N=[N+]=[N-])cc(=O)n(C)c1=O ?
Ans. > 100 µM (inactive)

Qu. Which measured GI50 value corresponds to C=C1C(=O)OC2CC(=C)C3CC=C(C)C3CC12 (stereo not drawn) ?
Ans. 35.5 µM (inactive)

Qu. Which measured GI50 value corresponds to C/C=C(/C)C(=O)O[C@H]1CCN2CC=C(COC(=O)[C@@](O)([C@H](C)OC)C(C)(C)O)[C@H]12 ?
Ans. > 100 µM (inactive)

Qu. Which measured GI50 value corresponds to CC1=NN(c2ccccc2Cl)C2(C1)SCC(=O)N2c1nc2ccccc2s1 (stereo not drawn) ?
Ans. > 100 µM (inactive)

Qu. Which measured GI50 value corresponds to COc1cccc(C2c3cc4c(cc3OC(C)(N3CCCC3)C2C)OCO4)c1OC (stereo not drawn) ?
Ans. 5.58 µM (inactive)

Qu. Which measured GI50 value corresponds to O=C(Nc1cccc(C(F)(F)F)c1)C(=O)C1NC(=S)NC1=O (stereo not drawn) ?
Ans. > 100 µM (inactive)

Qu. Which measured GI50 value corresponds to COc1cc(CNc2c3ccccc3nc3ccccc23)cc(OC)c1OC ?
Ans. 3.32 µM (inactive)

Qu. Which measured GI50 value corresponds to CN(C)c1nnnn1-c1c(N)n(C)c(=O)n(C)c1=O ?
Ans. > 100 µM (inactive)

Qu. Which measured GI50 value corresponds to COC1=C(C)C(=O)c2c(cc3c(c2O)C(C)(CCC=C(C)C)C(C)O3)C1=O (stereo not drawn) ?
Ans. 20 µM (inactive)

Qu. Which measured GI50 value corresponds to N#Cc1ccc(-c2ccc(Cl)cc2)n(C2OC(CO)C(O)C(O)C2O)c1=S (stereo not drawn) ?
Ans. > 100 µM (inactive)

* * *

# Tested on: M14
# ASSAY NAME: NCI tumour cell line growth inhibition, 48 h
The source made the active and inactive calls. Cut-off read from the data, not from the text of the source: active = GI50 up to about 1.1 µM and inactive = higher.
ASSAY ENDPOINT: GI50

Consider the following illustrative entries.
[[record]]
compound = "CC(C)(C)c1ccccc1NS(=O)(=O)c1ccccc1"
result = "96.2 µM (inactive)"

[[record]]
compound = "CSc1ccccc1NC1=NCCO1"
result = "> 100 µM (inactive)"

[[record]]
compound = "COC(=O)[C@]12CCC(C)(C)C[C@H]1[C@H]1C(=O)C=C3[C@@]4(C)C=C(C#N)C(=O)C(C)(C)[C@@H]4CC[C@@]3(C)[C@]1(C)CC2"
result = "0.0171 µM (active)"

[[record]]
compound = "CC(C)(C)c1ccc(-c2nc3ccc([N+](=O)[O-])cc3c(=O)o2)cc1"
result = "26.5 µM (inactive)"

[[record]]
compound = "C=C1C(=O)OC2CC(=C)C3CC=C(C)C3CC12 (stereo not drawn)"
result = "18 µM (inactive)"


Consider now this further compound.
Qu. Which measured GI50 value corresponds to CC(C)c1c2[nH]c3ccccc3c2c(C(C)C)c2[nH]c3ccccc3c12 ?
Ans. > 74.8 µM (inactive)

* * *

Reported GI50 values are given for each entry in this list.
# System: UACC-62
# ASSAY NAME: NCI tumour cell line growth inhibition, 48 h
The source made the active and inactive calls. Cut-off read from the data, not from the text of the source: active = GI50 up to about 1.1 µM and inactive = higher.

Qu. Which measured GI50 value corresponds to O=C(CCN1CCCCC1CCO)Nc1ccc2c(c1)C(=O)c1ccc(NC(=O)CCN3CCCCC3CCO)cc1C2=O (stereo not drawn) ?
Ans. 2.44 µM (inactive)

Qu. Which measured GI50 value corresponds to Brc1ccccc1C1SCc2nc3ccccc3n21 (stereo not drawn) ?
Ans. > 10 µM (inactive)

Qu. Which measured GI50 value corresponds to O=C(N/C(=C\c1ccc(/C=C(\NC(=O)c2ccccc2)c2nc3c(O)nc(S)nc3[nH]2)cc1)c1nc2c(O)nc(S)nc2[nH]1)c1ccccc1 ?
Ans. 34.3 µM (inactive)

* * *

# Tested on: M14
# ASSAY NAME: NCI tumour cell line growth inhibition, 48 h
Active and inactive are the calls of the source. Cut-off read from the data, not from the text of the source: active = GI50 up to about 1.1 µM and inactive = higher.
ASSAY ENDPOINT: GI50

Consider the following illustrative entries.
[[record]]
molecule = "COc1ccc(C(=O)C(C(=O)CCC(=O)Nc2ccc(C)c(C)c2)c2ccc(OC)cc2)cc1 (configuration not stated)"
assay_endpoint = "GI50"
result = "> 100 µM (inactive)"

[[record]]
molecule = "ClC(Cl)(Cl)C1CCOC1n1nc2ccccc2n1 (configuration not stated)"
assay_endpoint = "GI50"
result = "> 100 µM (inactive)"


Qu. Recorded GI50 for Oc1c(OCc2nnc(CCCCCCCCc3nnc(COc4ccc5ccccc5c4O)o3)o2)ccc2ccccc12 with M14, please?
Ans. > 100 µM (inactive)

Qu. Recorded GI50 for N#CSc1ccc(S(N)(=O)=O)cc1 with M14, please?
Ans. 21.6 µM (inactive)

Qu. Recorded GI50 for COc1cc2c(c(OC)c1)C(=O)O[C@H](C)CCCC/C=C/C2 with M14, please?
Ans. 12.7 µM (inactive)

Qu. Recorded GI50 for O=C(O)C1=C(CO)Oc2cc3c(cc2C1c1ccc2c(c1)OCO2)OCO3 (configuration not stated) with M14, please?
Ans. > 100 µM (inactive)

Qu. Recorded GI50 for N#C[BH2-][n+]1ccc(C(=O)NNCC(F)(F)F)cc1 with M14, please?
Ans. > 100 µM (inactive)
